system: Pseudomonas aeruginosa; assay: In vitro antibacterial activity against Pseudomonas aeruginosa G242; format: functional
measurement-kind: MIC (µg/mL)

1. C[C@@H](O)[C@H]1C(=O)N2C(C(=O)O)=C(CN(C)CC(N)=O)SC12 (some centres not stated) | 4
2. C[C@@H](O)[C@H]1C(=O)N2C(C(=O)O)=C(CSC(=S)N(C)CC(N)=O)SC12 (some centres not stated) | 8
3. C[C@@H](O)[C@H]1C(=O)N2C(C(=O)O)=C(SCCNC=N)C[C@H]12 [IMIPENEM ANHYDROUS] | 0.25
4. C[C@@H](O)[C@H]1C(=O)N2C(C(=O)O)=C(CN(C)CC(=O)N(C)C)SC12 (some centres not stated) | 0.5
5. C[C@@H](O)[C@H]1C(=O)N2C(C(=O)O)=C(COC(N)=O)S[C@H]12 | 1

###

system: Enterococcus faecalis; assay: In vitro antibacterial activity against Enterococcus faecalis; format: functional
The molecules listed here are annotated with their MIC90.
measurement-kind: MIC90 (µg/mL)

1) C[C@@H](O)[C@H]1C(=O)N2C(C(=O)O)=C(SCCNC=N)C[C@H]12 [IMIPENEM ANHYDROUS] | 2
2) CC1(C)S[C@@H]2[C@H](NC(=O)[C@H](N)c3ccccc3)C(=O)N2[C@H]1C(=O)O.CC1(C)[C@H](C(=O)O)N2C(=O)C[C@H]2S1(=O)=O | 2
3) C[C@@H](O)[C@H]1C(=O)N2C(C(=O)O)=C(CN(C)CC(N)=O)SC12 (some centres undefined) | 8
4) CC1(C)S[C@@H]2[C@H](NC(=O)[C@H](N)c3ccc(O)cc3)C(=O)N2[C@H]1C(=O)O | 0.5

###

test system: Yersinia sp.; experiment: In vitro antibacterial activity against Yersinia species; assay type: functional, yersinia spp; conditions: Yersinia sp. (in: enterobacteria)
measurement-kind: MIC90 (µg/mL)

1. CC1(C)S[C@@H]2[C@H](NC(=O)[C@H](N)c3ccccc3)C(=O)N2[C@H]1C(=O)O.CC1(C)[C@H](C(=O)O)N2C(=O)C[C@H]2S1(=O)=O | 32
2. C[C@@H](O)[C@H]1C(=O)N2C(C(=O)O)=C(SCCNC=N)C[C@H]12 [IMIPENEM ANHYDROUS] | 0.25
3. C[C@@H](O)[C@H]1C(=O)N2C(C(=O)O)=C(CN(C)CC(N)=O)SC12 (some centres undefined) | 0.5
